Compiled notes: published IC50 values involving Tyrosine-protein phosphatase non-receptor type 1 (Homo sapiens, UniProt P18031).
READOUT: IC50 (nM)

Recorded IC50, per entry:
>>> print(df.to_string())
                                   compound  readout  observed
0  O=C(O)/C=C/c1ccc(-c2nc(-c3cccs3)[nH]c2-c2ccc(/C=C/C(=O)O)cc2)cc1     IC50       420
1  CCC/C=C1/OC(=O)c2c(Oc3c(O)cc(O)c(C(=O)O)c3CCCCC)cc(OC)cc21     IC50       155
2  COc1c(OCc2c(Cl)cc(Cl)cc2Cl)cc2c(c1C=O)CC(O)OC2=O (stereo not shown)     IC50     28900

a: Cc1c(NC(=O)c2ccc3sc(C(F)(F)P(=O)(O)O)c(Br)c3c2)cccc1C(=O)N1CCCC1
b: O=C(O)/C=C/c1ccc(-c2nc(-c3ccc4ccccc4n3)[nH]c2-c2ccc(/C=C/C(=O)O)cc2)cc1
c: O=P(O)(O)C(F)(F)c1sc2c(OCC3CC3(F)F)cc(-c3cnn[nH]3)cc2c1Br (stereo not shown)
Please list these compounds in decreasing order of IC50. Your reply should list the labels following the order given in the request. a, b, c
(a: 6920 nM, b: 1700 nM, c: 14.1 nM)

A: CNc1nc(N)nc2cc(-c3ccccc3S(C)(=O)=O)ccc12
B: CNc1nc(N)nc2cc(-c3c(C)cccc3C)ccc12
When the recorded IC50 values are compared, which is smaller: that of A or that of B ? Choose, then provide that item's label. B

====

Compiled notes: published IC50 values involving UniProt:P18031.
READOUT: IC50 (nM)

>>> df
                              line_notation  measurement_target  unit_symbol  observed
0  Cc1nn(C)c(C)c1CNC(=O)c1ccc2sc(C(F)(F)P(=O)(O)O)c(Br)c2c1      UniProt:P18031           nM      6120

A: O=C(Nc1cccc(-n2nccn2)c1)c1ccc2sc(C(F)(F)P(=O)(O)O)c(Br)c2c1
B: CCc1csc([C@H](Cc2ccc(NS(=O)(=O)O)cc2)NC(=O)Cc2ccccc2F)n1
C: COC(=O)N[C@@H](Cc1ccccc1)C(=O)N[C@@H](Cc1ccc(NS(=O)(=O)O)cc1)c1nc2ccccc2s1
Please list these compounds in decreasing order of IC50. Your reply should list the labels following the order given in the request. B, C, A
(B: 5360 nM, C: 740 nM, A: 465 nM)

====

pIC50: −log10 of the molar value.
Compiled notes: published pIC50 values involving Tyrosine-protein phosphatase non-receptor type 1 (Homo sapiens).

Recorded pIC50, per entry:
>>> df
                                   compound  observed
0  O=C1CN(c2c(O)ccc(-c3nnc(C4CC4)[nH]3)c2F)S(=O)(=O)N1    ≥ 6.00
1  CC(=O)N(C)C1CCC=C(c2ccc(O)c(N3CC(=O)NS3(=O)=O)c2F)C1 (centres unmarked)    ≥ 6.00
2  CC(=O)Nc1ccc(-c2nc(-c3ccc(/C=C/C(=O)O)cc3)c(-c3ccc(/C=C/C(=O)O)cc3)[nH]2)cc1      6.07
3  O=C1CN(c2c(O)cc3ccc(OCCC4CCCC4)nc3c2F)S(=O)(=O)N1    ≥ 6.00

O=C(O)/C=C/c1ccc(-c2nc(-c3ccccc3F)[nH]c2-c2ccc(/C=C/C(=O)O)cc2)cc1 yielded pIC50 of 6.10

O=C1CN(c2c(O)ccc(-c3cc(C#CC4CC4)n[nH]3)c2F)S(=O)(=O)N1 yielded pIC50 of ≥ 6.00

O=C1CN(c2c(O)ccc(-c3cc(C4=CCOC4)n[nH]3)c2F)S(=O)(=O)N1 yielded pIC50 of ≥ 6.00

NC(=O)c1cc(OCc2ccccc2F)c2sc(C(F)(F)P(=O)(O)O)c(Br)c2c1 yielded pIC50 of 7.10

====

Compiled notes: published IC50 values involving Tyrosine-protein phosphatase non-receptor type 1 (Homo sapiens).
READOUT: IC50 (nM)

Recorded IC50, per entry:
>>> print(df.to_string())
                              line_notation  unit_symbol  observed
0  O=C(O)CCc1ccc(-c2cccn2-c2ccc(CCC(=O)O)cc2)cc1           nM      5870
1  O=C(Nc1cccc(CO)n1)c1ccc2sc(C(F)(F)P(=O)(O)O)c(Br)c2c1           nM      9150
2  CC[C@@H]1C[C@H]1COc1cc(C(N)=O)cc2c(Br)c(C(F)(F)P(=O)(O)O)sc12           nM      53.6
3  CCCCNC(=O)c1oc(-c2ccc(/C=C/C(=O)O)cc2)nc1-c1ccc(F)cc1           nM      9000
4  O=C(N[C@H]1CCN(C(=O)C2CC2)C1)c1ccc2sc(C(F)(F)P(=O)(O)O)c(Br)c2c1           nM       986

I: Cc1ccc(-c2ccc(O[C@H](Cc3ccccc3)C(=O)O)cc2)n1-c1ccc(Cl)cc1
II: CS(=O)(=O)CCCOc1cc(-c2nc[nH]n2)cc2c(C#N)c(C(F)(F)P(=O)(O)O)sc12
Of I and II , whose reported IC50 is the larger number? Choose, then provide that item's label. I

====

Compiled notes: published IC50 values involving Tyrosine-protein phosphatase non-receptor type 1 (Homo sapiens, UniProt P18031).

                              line_notation  readout   observed
0  Cn1nc(-c2ccc(O)c(N3CC(=O)NS3(=O)=O)c2F)cc1N     IC50  ≤ 1000 nM

# lookup: COc1cc(-c2ccc(O)c(N3CC(=O)NS3(=O)=O)c2F)ccn1 on Tyrosine-protein phosphatase non-receptor type 1 (Homo sapiens, UniProt P18031), IC50 = ≤ 1000 nM

# lookup: C[C@@H](NC(=O)c1cc(OCCCC(F)(F)F)c2sc(C(F)(F)P(=O)(O)O)c(Br)c2c1)c1cccnn1 on Tyrosine-protein phosphatase non-receptor type 1 (Homo sapiens, UniProt P18031), IC50 = 7.5 nM

# lookup: CCN1CC(Nc2cc3cc(N4CC(=O)NS4(=O)=O)c(O)cc3n(C)c2=O)C1 on Tyrosine-protein phosphatase non-receptor type 1 (Homo sapiens, UniProt P18031), IC50 = ≤ 1000 nM

# lookup: O=C1CN(c2c(O)ccc(-c3cc(C(=O)NC4CC4)n[nH]3)c2F)S(=O)(=O)N1 on Tyrosine-protein phosphatase non-receptor type 1 (Homo sapiens, UniProt P18031), IC50 = ≤ 1000 nM

# lookup: O=C1CN(c2c(O)ccc(C3=CCCNC3)c2F)S(=O)(=O)N1 on Tyrosine-protein phosphatase non-receptor type 1 (Homo sapiens, UniProt P18031), IC50 = ≤ 1000 nM

# lookup: CC(C)CCNc1cnc2cc(O)c(N3CC(=O)NS3(=O)=O)cc2c1 on Tyrosine-protein phosphatase non-receptor type 1 (Homo sapiens, UniProt P18031), IC50 = ≤ 1000 nM

# lookup: N#Cc1ccc2c(C#N)c(C(F)(F)P(=O)(O)O)sc2c1 on Tyrosine-protein phosphatase non-receptor type 1 (Homo sapiens, UniProt P18031), IC50 = 12900 nM

====

pIC50: −log10 of the molar value.
Compiled notes: published pIC50 values involving Tyrosine-protein phosphatase non-receptor type 1 (Homo sapiens, UniProt P18031).
READOUT: pIC50

Recorded pIC50, per entry:
In [3]: df
Out[3]:
                                   molecule  readout  observed
0  CCNC(=O)c1cc(OCCCS(C)(=O)=O)c2sc(C(F)(F)P(=O)(O)O)c(Br)c2c1    pIC50      8.07
1  O=C(NC1CCN(Cc2ccccc2)C1)c1ccc2sc(C(F)(F)P(=O)(O)O)c(Br)c2c1 (stereo not shown)    pIC50      5.50
2  CCc1ccc(-c2ccc(O[C@H](Cc3ccccc3)C(=O)O)cc2)n1-c1ccc(Br)cc1    pIC50      6.28
3  O=P(O)(O)C(F)(F)c1sc2c(OCCCC(F)(F)F)cc(-c3nnc(C(F)(F)F)[nH]3)cc2c1Br    pIC50      8.57

I: O=C(NCC1CC(F)(F)C1)c1ccc2sc(C(F)(F)P(=O)(O)O)c(Br)c2c1
II: O=C(O)/C=C/c1ccc(-c2nc3ccc(C(=O)O)cc3nc2-c2ccc(/C=C/C(=O)O)cc2)cc1
When the recorded pIC50 values are compared, which is smaller: that of I or that of II ? Choose, then provide that item's label. I

====

Compiled notes: published IC50 values involving Tyrosine-protein phosphatase non-receptor type 1 (Homo sapiens).
READOUT: IC50 (nM)

                              line_notation  observed
0  O=C(Nc1ccccc1)c1ccc2sc(C(F)(F)P(=O)(O)O)c(C(F)(F)F)c2c1      2200

1: CCc1csc([C@H](Cc2ccc(NS(=O)(=O)O)cc2)NC(=O)CN2CCN(CC)C(=O)C2=O)n1
2: COC(=O)N(C)[C@@H](Cc1ccccc1)C(=O)N[C@@H](Cc1ccc(NS(=O)(=O)O)cc1)c1csc(-c2cccs2)n1
3: NC(=O)c1cc(OCCC2CCC2)c2sc(C(F)(F)P(=O)(O)O)c(Br)c2c1
Please list these compounds in decreasing order of IC50. Your reply should list the labels following the order given in the request. 2, 1, 3
(2: 13200 nM, 1: 530 nM, 3: 68.4 nM)
